Test system: UACC-62
ASSAY_COMMENT: NCI tumour cell line growth inhibition, 48 h
Activity calls are given as the source filed them. Rule as the data show it: active = GI50 up to about 1.1 µM and inactive = higher.
Collected GI50 values appear next to each entry.

COc1ccccc1OCC(=N/NC(=O)c1ccncc1)/N=C/c1cccnc1    > 100 µM (inactive)

The molecule identified as "COc1cc([N+](=O)[O-])c(OC)c2c(Nc3ccc(S(=O)(=O)O)c4cc(S(=O)(=O)O)cc(S(=O)(=O)O)c34)cc(C)nc12" registered its GI50 at > 100 µM (inactive)

The molecule identified as "Cc1ccc(N2C(=O)/C(=C3\Sc4c(nc(C)n(C)c4=O)N3c3ccccc3)SC2=S)cc1" registered its GI50 at 45.7 µM (inactive)

The molecule identified as "O=[N+]([O-])c1ccc(Cl)c(/C=N/C23CC4CC(CC(C4)C2)C3)c1" registered its GI50 at > 10 µM (inactive)

The molecule identified as "COc1ccc(/C=N/Nc2nc3ccccc3c(=O)n2-c2ccccc2)cc1" registered its GI50 at 24.4 µM (inactive)

The molecule identified as NCCC(=O)N[C@H](Cc1cc(O)c(O)c(SCC(NC(=O)CC[C@H](N)C(=O)O)C(=O)NCC(=O)O)c1)C(=O)O (some centres undefined) registered its GI50 at > 50 µM (inactive)

The molecule identified as COC(=O)C1=C(c2cc(OC)c(OC)c(OC)c2)OC(c2cc(OC)c(OC)c(OC)c2)C1 (centres undefined) registered its GI50 at 12.8 µM (inactive)

The molecule identified as "Cc1cc(Cl)ccc1NC(=O)/C(Cl)=C(/Cl)C(=O)O" registered its GI50 at 21.5 µM (inactive)

The molecule identified as CCOc1ccccc1NC(=O)CC1SC(Nc2ccc([N+](=O)[O-])cc2)=NC1=O (centres undefined) registered its GI50 at 17.2 µM (inactive)
